# TARGET_OR_SYSTEM: E-selectin (Homo sapiens, UniProt P16581)
# Sequence (P16581 whole entry): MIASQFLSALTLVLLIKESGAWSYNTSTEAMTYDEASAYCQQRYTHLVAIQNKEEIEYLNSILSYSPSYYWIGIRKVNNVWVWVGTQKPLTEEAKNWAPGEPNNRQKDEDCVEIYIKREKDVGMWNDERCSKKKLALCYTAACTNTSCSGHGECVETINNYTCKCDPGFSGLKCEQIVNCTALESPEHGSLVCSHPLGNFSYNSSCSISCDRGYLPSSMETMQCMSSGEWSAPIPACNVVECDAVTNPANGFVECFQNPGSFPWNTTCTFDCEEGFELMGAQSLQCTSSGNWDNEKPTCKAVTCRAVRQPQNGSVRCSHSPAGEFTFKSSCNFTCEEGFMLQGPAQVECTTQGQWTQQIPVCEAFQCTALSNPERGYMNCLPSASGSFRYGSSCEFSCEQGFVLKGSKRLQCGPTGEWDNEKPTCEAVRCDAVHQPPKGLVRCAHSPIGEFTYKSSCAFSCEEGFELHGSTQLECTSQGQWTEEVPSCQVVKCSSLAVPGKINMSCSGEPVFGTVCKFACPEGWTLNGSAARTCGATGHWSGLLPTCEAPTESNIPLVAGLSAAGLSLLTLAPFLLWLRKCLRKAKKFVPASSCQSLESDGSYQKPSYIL
READOUT: IC50 (µM)
Express your answer in µM, writing the number without its unit.

Prompt: Give the measured IC50 of `CCCCCCCCCCCCCCC(CCCCCCCCCCCCCC)C(=O)N[C@@H](CO[C@@H]1O[C@@H](CO)[C@H](O)[C@H](O)[C@H]1O)C(=O)N[C@H](CCC(=O)O)C(=O)NC` .
Completion: 3.5

###

# TARGET_OR_SYSTEM: L-selectin (Homo sapiens, UniProt P14151)
# Sequence (P14151 whole entry): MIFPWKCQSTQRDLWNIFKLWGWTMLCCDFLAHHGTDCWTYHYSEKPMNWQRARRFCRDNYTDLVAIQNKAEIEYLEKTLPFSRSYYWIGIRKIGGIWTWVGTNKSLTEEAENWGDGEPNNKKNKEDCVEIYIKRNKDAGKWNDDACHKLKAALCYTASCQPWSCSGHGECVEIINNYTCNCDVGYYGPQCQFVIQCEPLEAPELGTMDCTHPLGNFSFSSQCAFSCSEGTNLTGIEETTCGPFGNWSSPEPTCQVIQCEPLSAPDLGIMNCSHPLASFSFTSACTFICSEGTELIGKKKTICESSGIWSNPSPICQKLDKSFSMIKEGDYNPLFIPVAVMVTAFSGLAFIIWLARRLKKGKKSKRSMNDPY
IC50 values for the molecules below.
Write the number in µM without appending the unit.

- GIVEN_SMILES: "CCCCCCCCCCCCCCC(CCCCCCCCCCCCCC)C(=O)N[C@@H](CO[C@@H]1O[C@@H](CO)[C@H](O)[C@H](O)[C@H]1O)C(=O)N[C@H](CCC(=O)O)C(=O)NC"
  READOUT: "IC50"
  READOUT_UNITS: "µM"
  EXPERIMENTAL_RESULT: 4

// next entry
Prompt: Dear colleague, I am looking for the recorded IC50 of the following molecule: `CCCCCCCCCCCCCCC(CCCCCCCCCCCCCC)CN1CCCS[C@@H](CCC(=O)O)C(=O)N[C@H](CO[C@H]2O[C@H](CO)[C@@H](O)[C@@H](O)[C@@H]2O)C1=O`
Completion: 2.34

The origin of these recorded values is ChEMBL document CHEMBL1133272.
